Collected apparent KD of MS2 coat protein values appear next to each entry.
- Tested on: MS2 coat protein
- EXPERIMENTAL DETAILS: apparent KD of MS2 coat protein; higher = weaker reporter binding
- TEST SETTINGS: Eterna round: R107; input ligand: theophylline 20 uM
Provide only the numeric value, understood in nM.

CONSTRUCT SEQUENCE: UGUAACAUGAGGAUCACCCAUGUGCACGAUACCAGCUUCGAAAGAGGCCCUUGGCAGCGUAUGCGUAAGCUGUAUAAUAUAUAUC [#28 SameState-TheophyllineA]
SCALE UNIT: nM
apparent KD of MS2 coat protein: 14.4
//
CONSTRUCT SEQUENCE: UGGUUUCGGUCAAUCACCGGUCCCUGGGAAGGAGCGGACUCAUGUCCAGGUAGGUCGCCCAGACAUGAGGAUCACCCAUGUGACA [Tiusdiin]
SCALE UNIT: nM
apparent KD of MS2 coat protein: 409
//
CONSTRUCT SEQUENCE: UUCGUUGGCGAUCUGGGUUUACCAGAUCGGCGAGGACCGGUACGGCCGCCACUCGUGUUUUCUUUACAUGAGGAUCACCCAUGUU [SSTA #3]
SCALE UNIT: nM
apparent KD of MS2 coat protein: 25.3

Provide the documented apparent KD of MS2 coat protein with MS2 coat protein as the system for UAAUGUGAGAGAAGGAGCGGAAGUCUCGUUACAACAUGAGGAUCACCCAUGUAACGUACAGUCCAGGUAGGUCGCUCUCGGGCGC [pqacmullin]
21.4

Item: UCUGUUUGCUUUGUUUGUUUCUUCUUUGAGCGAGGACCGGUACGGCCGCCACUCGGGUUACAUGAGGAUCACCCAUGUGGUUUCU [Interesting]
163

Item: UCGGGCAGAGCGGCCGCCACUGUAUGGCAUGCGGAUGAAGGAACAUGAGGAUCACCCAUGUAGAUUAGGACCGGGCUUGCGGAGA [p''pmullin]
22.9

====

- System: K4 kissing-loop RNA reporter
- EXPERIMENTAL DETAILS: apparent KD of K4 kissing-loop reporter; higher = weaker reporter binding
- TEST SETTINGS: Eterna round: R107; input ligand: none
Collected apparent KD of K4 kissing-loop reporter values appear next to each entry.
Provide only the numeric value, understood in nM.

CONSTRUCT SEQUENCE: CUUCAGAUCUGAAGGAGCGCGUUACCAGAAUGCAUCAUAGAGCAGUGAUGUUGCUCUGGAUCGCAGGUAGGUCGCAGAUCUGACG [Arg B Ex t7b]
apparent KD of K4 kissing-loop reporter [nM]: 189

Provide the documented apparent KD of K4 kissing-loop reporter with K4 kissing-loop RNA reporter as the system for AUAACAAUCUGAAGGAGCGAGAAAGCAGUGAUGUUGCAAAGGCGAGUGAUGUUCGCAAUAACUCAGGUAGGUCGCAGAAACAAGA [Same State Arginine B]
187

Item: AGACUACCACACUGUCAAUAGACAGUGAGCUAGGAUAUGCUGAUAAGCAGAAGGAGUGAUGUUCCUUGGUAGUCAAUAAAAUAAU [FmnAX 13 G29+U67]
285

Item: AUUAAUUUCAGAGGAUAUGCUUAAUUGAUUUAUUAUUAUCUAUUAUGCAGUGAUGUUGCAUAUUUUGCAGAAGGCUGAUUUAUAA [JR_SSFMNB_Sub018]
140

Item: AACCGUGUGGCGGCCGCCACUAGUCUCCAGUGAUGUUGGAGAGACCACGUAAGUGGUCUCCGACAUAGGACCGGGCCAUAUGGAA [Same State - Tryptophan B (Freestyle 25)]
361

Item: ACGUGCACCAGUGAUGUUGGAAAAUAUGAAGGAGCGUGCGAAAGCACAGGUAGGUCGCAUAAUAGCACGAGCCACGAAAGUGGCA [#SwitchBubble 6 #K4Early #Sliding]
134

====

- System: K4 kissing-loop RNA reporter
- EXPERIMENTAL DETAILS: apparent KD of K4 kissing-loop reporter; higher = weaker reporter binding
- TEST SETTINGS: Eterna round: R107; input ligand: none
Classification field: yes = apparent KD of K4 kissing-loop reporter at or over 200 nM; no = apparent KD of K4 kissing-loop reporter under 200 nM.

CONSTRUCT SEQUENCE: UGUAUGGACUGAAGGAGCGCUAGGAAAGUGAGUGAUGUUCAUAUAAAAGUAUAAAGGGUUUGGCAGGUAGGUCGCAGUCCAUACU [KL-SSArg B5]
CATEGORY LABEL: yes
//
CONSTRUCT SEQUENCE: UGACUGGACUGAAGGAGCGCUGAACUCCUAGUGAUGUUAGGACAACGAGACAAAGUCUCGAAGCAGGUAGGUCGCAGUCUAGUCU
CATEGORY LABEL: no
//
CONSTRUCT SEQUENCE: UGUACCGAGUCAGGAUAUGGCGUCGAAAGACGAAUUCUAGUGAUGUUAGGGAUCUGCGAAAGCAGUUCAGAAGGGACUUGGUACU [FmnBS 26 U36+U67]
CATEGORY LABEL: yes
//
CONSTRUCT SEQUENCE: AGGCACGAGCAAGGAUAUUGAGUAGAGUGAUGUUCUGCCUGGGUUGGCUCGCAAGAGCCUUCUCAGCGAGAAGGUGCUCGUGCCU [#2 Same State - FMN A Attempt #25 (HarryS)]
CATEGORY LABEL: yes
//
CONSTRUCT SEQUENCE: GCGCGUCAUGUCAGCGGUGCCUAUGUCGAUACCAGCGCCGCAAGGCGCCCUUGGCAGCGACGCGCUGGAGUGAUGUUCCAGCGUG [#2 Exclusion - Theophylline A Attempt #11 (HarryS)]
CATEGORY LABEL: no

Pending sequence:
# bool: apparent KD of K4 kissing-loop reporter of ACGUAGUUCUAGGAUACCAGCCAAGGUGCCAGGACAAAAGUCCUGGCAGUCAGUGAUGUUGGCCCUUGGCAGCCUAGAACUACGA [Omei KL Theo B Exc B v8] >= 200 nM
yes

====

- System: MS2 coat protein
- EXPERIMENTAL DETAILS: apparent KD of MS2 coat protein; designed switch direction (-1 OFF switch, 1 ON switch): -1; higher = weaker reporter binding
- TEST SETTINGS: input ligand: FMN 200 uM
QUANTITY MEASURED: apparent KD of MS2 coat protein (nM)
Provide only the numeric value, understood in nM.

CONSTRUCT SEQUENCE: CGAUAAAAGACAGGAUAUGAGGAGAGAGAGAGAUCAGAAGGGUCACAUGAGGAUCACCCAUGUGAGUUCUCGAAAUUAAAUAUU [Prohibition 50 - Jieux - Exclusion NG 1] (Eterna round: R96, puzzle: Exclusion NG 1)
QUANTITY MEASURED: apparent KD of MS2 coat protein
REPORTED VALUE: 18.8

Provide the documented apparent KD of MS2 coat protein with MS2 coat protein as the system for UUCAGGAGUCGAGGAUAUUUGCAGACGACAUGAGGAUCACCCAUGUGGUUAGCAUAGUCUUCAGCAGAGAAGGCGACCAACGAG [Eternabot solution 20] (Eterna round: R96, puzzle: Exclusion NG 2)
171

Item: AAUUAACUAGGAUAUACUUGAGGAUCACCCAAGUGGGCUCCACCUGCUUGGCUCCCAGGUAGAAGGAGUAUACA [Tioner] (Eterna round: R97, puzzle: Exclusion 3)
213

Item: CCUGCGGACAAAGGAUAUUGCGGUGGCCGGCUCGGCGUACCGAGCCUACAUGAGGAUCACCCAUGUAAGAAGGUUGUCGUUGGA [Mat - Exclusion NG 2 - Mod of JL - D71] (Eterna round: R96, puzzle: Exclusion NG 2)
228

Item: UUUACAAGCUAAUGAUCCCACAUGAGGAUCACCCAUGUUGCUGCCGGUGACGGUAGCAUAACAUUUGCUCGUCUUAU [JL TOV1 3.58] (Eterna round: R97, puzzle: Sensor, turn-off variant 1)
1180

====

- Tested on: K4 kissing-loop RNA reporter;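 further: bound reporter read as fluorescence of individual clusters on recovered sequencing chips by microscopy, with normalized cluster intensities fitted with a binding model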
- EXPERIMENTAL DETAILS: apparent KD of K4 kissing-loop reporter; higher = weaker reporter binding
- TEST SETTINGS: Eterna round: R107; input ligand: none
Collected apparent KD of K4 kissing-loop reporter values appear next to each entry.
Provide only the numeric value, understood in µM.

Please review the entries below; each comes with its answer.
CONSTRUCT SEQUENCE: UGUACCGAGUCAGGAUAUGGCGUCGAAAGACGAAUCUUAGUGAUGUUAGGGAUCUGCGAAAGCAGUUCAGAAGGGACUUGGUACU [FmnBS 26 U37+U67]
SCALE UNIT: µM
apparent KD of K4 kissing-loop reporter: 0.506

CONSTRUCT SEQUENCE: AGUUAUGUUGCGGCCGCCACUGCGCGAGUGAUGUUCGUGGCAUAUAUAAUGUUAUAUAUGCAUCACAGGACCGGGCGGCAUAGCG [Same State - Tryptophan B]
SCALE UNIT: µM
apparent KD of K4 kissing-loop reporter: 0.375

CONSTRUCT SEQUENCE: UGAUAGGACAGAAGGAGCGGUAGUGAUGUUGCCAAAAGGGUAAGGUGUCAAAAGACACCCUACCAGGUAGGUCGCUGUCCUAUCU
SCALE UNIT: µM
apparent KD of K4 kissing-loop reporter: 0.0846

CONSTRUCT SEQUENCE: CGAGUGAUGUUCGUUUUAAAAUUUUUUUGACAGGAUAUGCGGAAACGCAGAAGGGUCACCUUUGAGUUAAAAGAAAUUAAAUUUU [Ex FMN 16]
SCALE UNIT: µM
apparent KD of K4 kissing-loop reporter: 0.198

CONSTRUCT SEQUENCE: GCGCGUCAUGUCAGCGGUGACACUGUCGAUACCAGCGCCGCAAGGCGCCCUUGGCAGCGACGCGCUGGAGUGAUGUUCCAGCGUG [#2 Exclusion - Theophylline A Attempt #14 (HarryS)]
SCALE UNIT: µM
apparent KD of K4 kissing-loop reporter: 0.164

CONSTRUCT SEQUENCE: CCAUCGCUAUUCGAUACCAGUCAUCAAAUCUUUGGUUUGAUAAAGGAGUGAUGUUCCCAAGACCCUUGGCAGCGAAUAGUGAUGG [Theophylline B K4 10]
SCALE UNIT: µM
apparent KD of K4 kissing-loop reporter: 0.224

Report apparent KD of K4 kissing-loop reporter for AGUGAUGUUGUGUUGUGUUAGGGAAGUGAUCGAGGACCGGUACGGCCGCCACUCGAGUGAUGAGUGAGUGAUGUUUGUUUAGGGA [whbob_SS_Tryp_A_m8] please.
0.395

Item: UGAUGUUUAGGUCACCCAGUGAUGUUGGAAGGAGCGUGCGAAAGCACAGGUAGGUCGCCAACCUAAAAGUGACCUGAGCAUCUAA [#SwitchBubble 8 #K4Early]
0.511

Item: UGACUGGACUGAAGGAGCGAGCGAGACAAAGUCUCGAAAAUUCAGUGAUGUUGAAAUAUAACUCAGGUAGGUCGCAGUCUAGUCU [ArgBS 4 #SwitchBubble #StaticStem]
0.377

Item: UGUGUUUACCUGACUCAGUGAUGUUGAGAAGGAGCGUGCGAAAGCACAGGUAGGUCGCUCAAUCCUUAAUCAGGUGAGCACUAAA [#SwitchBubble 13 #K4Early]
0.502

Item: CCUAUCUCAUACGAUACCAGUCCGAGUGAUGUUCGAACAGGUUUUAGUUUGCCAUAUAAUGACCCUUGGCAGCGUAUGGGAUAGG [Ex Theophylline B K4 13]
0.163

Item: `GCCCGAAAGGGCCGAAGUGUUUGCGGCGAUCGAGGACCGGUACGGCCGCCACUCGUCGAGGCGUUCAGUGAUGUUGAAAGCAUGA`
0.215
